For each record, write down the corresponding viability at 28.5 h, 10 µM.
Experiment: in vitro
Details: human, hela cells, % viability
Expressed in %, but write only the number.

Kindly indicate its recorded viability at 28.5 h, 10 µM. Item: Cc1ccc2c(CC(=O)NCCn3cncn3)coc2c1 93.8

For CCC(C)NC(=O)Cn1cccc2cc(C3CCNCC3)nc1-2 (stereo not drawn) , write its viability at 28.5 h, 10 µM. 110

Provide one value: measured viability at 28.5 h, 10 µM of O=C(c1ccccc1)N1C[C@@H](c2ccsc2)[C@@H]2CN(Cc3ccccc3)CC[C@@H]21 104

Give recorded viability at 28.5 h, 10 µM. CC(C)Cc1nsc(NC2CCCN(c3ccn(C)n3)C2=O)n1 (stereo not drawn) 91.2

Look up and state reported viability at 28.5 h, 10 µM for C[C@H](Cn1nc2c(cc1=O)CCCCC2)NC(=O)c1cccs1 101

Return viability at 28.5 h, 10 µM (reported value) for this compound: N#Cc1ccccc1CSc1nc(N2CCOCC2)nc(N2CCOCC2)n1 92.3

For the compound Cc1cc(C(=O)N2CCC(C(=O)c3ccnn3C)CC2)sc1C , report viability at 28.5 h, 10 µM. 89.3

Consider the compound O=C(O)c1ccc(NC(=O)c2cccc(NC(=O)c3cccc4ccccc34)c2)cc1 . State its measured viability at 28.5 h, 10 µM. 101

Give the reported value of viability at 28.5 h, 10 µM for this record: Cc1ccc(C)c(C2C(C(=O)c3ccccc3Cl)=C(O)C(=O)N2c2ccc(CC(=O)O)cc2)c1 (stereo not drawn) 90.7

====

Assay: in vitro
Details: human, hela cells, % viability
So I've got a bunch of compounds here, and I need their viability at 28.5 h, 10 µM values.
Write the number in % without appending the unit.

Dear colleague, please send me the reported viability at 28.5 h, 10 µM for NS(=O)(=O)c1ccc(NC(=S)NNC(=O)C2c3ccccc3Oc3ccccc32)cc1 when you can. 99.2

Supply measured viability at 28.5 h, 10 µM of O=C(c1cc2c(s1)CCC2)N1CCn2c(nnc2C2CC2)C1 in your reply. 96.6

Tell us which viability at 28.5 h, 10 µM value is on record for OCCCN1CCC(Oc2cncc(OCc3cccnc3)n2)C1 (centres unmarked) 91.7

Look up and report measured viability at 28.5 h, 10 µM for this entry: O=C(Nc1cccc(C(F)(F)F)c1)Nc1cccc(S(=O)(=O)N2CCOCC2)c1 99

Quick one: give measured viability at 28.5 h, 10 µM for Cc1csc2c(C3CCCN(C(=O)c4ccccn4)C3)nc(C)n12 (centres unmarked) 98.6

Report measured viability at 28.5 h, 10 µM; entry is CCOC(=O)N1CCC(NS(=O)(=O)c2ccc(Cl)c(Cl)c2Cl)CC1 96.4

Supply recorded viability at 28.5 h, 10 µM for COc1ccc(S(=O)(=O)N2CCCC(C(=O)Nc3ccc(C(N)=O)cc3)C2)cc1C (centres unmarked) here. 99.4

Supply recorded viability at 28.5 h, 10 µM for COc1ccc(CN2CCN(c3nccnc3NS(C)(=O)=O)CC2)cc1 here. 88.7

Name the recorded viability at 28.5 h, 10 µM of the item CN(C)c1cccc(OCCn2ccnc(N3CCNCC3)c2=O)c1 [CBK013866F] in your answer. 114

Provide viability at 28.5 h, 10 µM value for the following compound: CC(C)Nc1nccnc1Sc1cccs1 123

Return reported viability at 28.5 h, 10 µM. Input compound: Cn1c(=O)c2[nH]c(NCCN3CCOCC3)nc2n(C)c1=O 98.6

Quick one: give measured viability at 28.5 h, 10 µM for Nc1n[nH]c(CCCc2nc(N)n[nH]2)n1 89.8

Identify measured viability at 28.5 h, 10 µM corresponding to Fc1cnc(N2CCCC3(CCOC3)C2)nc1N1CCOCC1 (centres unmarked) 84.5

Give the measured viability at 28.5 h, 10 µM for O=C1NCC2(CCN(C(=O)c3ccco3)CC2)Oc2ccccc21 103

Write down viability at 28.5 h, 10 µM measured for item O=C(c1ccco1)N1CCC(n2c(=O)oc3ccccc32)CC1 92.8

Answer with the recorded viability at 28.5 h, 10 µM of CS(=O)(=O)Nc1ccc(-c2ccc3c(c2)CCO3)c2ccccc12 only. 76.5

# return recorded viability at 28.5 h, 10 µM for input O=S(=O)(NCc1ccccc1)c1cccc2nonc12 90.4

Supply viability at 28.5 h, 10 µM value. Item: COCC1CCCN1C(=O)c1cnn2c(C)c(Cc3cccc(C#N)c3)c(C)nc12 (centres unmarked) 99.6

Supply viability at 28.5 h, 10 µM value. Item: CCN(CC(=O)NCc1ccc(F)cc1)C(=O)c1ccc(C#N)cc1 100

Note viability at 28.5 h, 10 µM for the compound shown: NCc1ccc(CN(Cc2cccc(Cl)c2)C(=O)NC(c2ccccc2)c2ccccc2)cc1 [CBK046087C] 91.6

Identify measured viability at 28.5 h, 10 µM associated with O=C(c1cccnc1)C1CCN(C(=O)Cc2cccc(F)c2)CC1 101

Tell me its viability at 28.5 h, 10 µM given O=C(c1ccc2c(c1)CCCO2)N(Cc1ccccn1)CC1CCCO1 (centres unmarked) as the entry. 84.9

Give the value of viability at 28.5 h, 10 µM reported for the following: CCOC(=O)C1=C(C)N(c2ccc(C(=O)O)cc2)C(=O)NC1c1ccc(OC(F)F)c(OC)c1 (centres unmarked) 90.1

Answer with the recorded viability at 28.5 h, 10 µM for the compound listed here: COc1ccc(C)cc1C(O)CN1CCOC(c2ccc(F)cc2)C1 (centres unmarked) 95.5

Give recorded viability at 28.5 h, 10 µM. Cc1ccccc1NS(=O)(=O)c1ccc(OCC(=O)N2CCN(c3cc(Cl)ccc3C)CC2)cc1 94.5

Read off the recorded viability at 28.5 h, 10 µM for COc1ccc(-c2c(-c3ccc(O)cc3O)n[nH]c2C)cc1OC 81.7

Please report viability at 28.5 h, 10 µM for the following compound: CN1CCN(c2ccc(NC(=O)c3ccc([N+](=O)[O-])o3)cc2)CC1 18.8

Provide measured viability at 28.5 h, 10 µM value, entry: COC(=O)N/N=C(\C)c1ccc(Br)s1 103

Check the records and state viability at 28.5 h, 10 µM for O=C(CCCc1ccccc1)Nc1c(F)cc(F)cc1OC1CCNCC1 [CBK050222T] 96.1

Specify measured viability at 28.5 h, 10 µM for O=C(O)/C=C/c1cccc(NS(=O)(=O)c2ccc(C(=O)O)cc2)c1 . 88

Please give measured viability at 28.5 h, 10 µM of the following entry: O=C1NC(=O)C(CCCCN2CCC3(CCN(C(=O)c4cc(F)c(F)cc4F)C3)C2)N1 (centres unmarked) 84.8

Let me know recorded viability at 28.5 h, 10 µM for CSCCC(=O)Nc1ccc2ncccc2c1 , thanks. 87.2

For the compound Cc1cc(C(=O)N2CCC(c3nc(C)n4c(C)csc34)CC2)on1 , report viability at 28.5 h, 10 µM. 99.3

Dear colleague, please send me the reported viability at 28.5 h, 10 µM for Cc1n[nH]c(C)c1CC(=O)NC(Cc1cccs1)c1nccs1 (centres unmarked) when you can. 92.1

Given the compound c1csc(-c2ccn3c(n2)nc2ccccc23)c1 , write its reported viability at 28.5 h, 10 µM. 83.9

Hello, please tell me recorded viability at 28.5 h, 10 µM for this one: O=C(NC(=O)N1CCC2(C1)NCCc1c2[nH]c2ccccc12)c1ccccc1 (centres unmarked) 94.2

Read the entry C=CCn1c(Cc2csc(NC(=O)c3ccc(C(C)=O)s3)n2)n[nH]c1=S and write its reported viability at 28.5 h, 10 µM. 77

Give viability at 28.5 h, 10 µM for the following compound: CN(C)CCN(C)c1nc(-c2ccc(C(C)(C)C)cc2)cn2ccnc12 107

====

Test: in vitro
Conditions: human, hela cells, % viability
METRIC_NAME: viability at 28.5 h, 10 µM (%)
Write it as a number; the unit % goes unstated.

Give viability at 28.5 h, 10 µM for the following compound: Cc1ncc(S(=O)(=O)N2CCC(OCc3ccncc3)C2)s1 (stereo not shown) 99.5

Kindly indicate its recorded viability at 28.5 h, 10 µM. Item: COC(=O)Nc1ncc(CN2C(=O)c3ccccc3C2=O)s1 111

Specify measured viability at 28.5 h, 10 µM for CCS(=O)(=O)N1CCN(Cc2ccc3c(c2)OCO3)CC1 . 92.2

Please indicate viability at 28.5 h, 10 µM recorded for CN(CC(F)(F)F)C(=O)CCc1nc(-c2cccs2)no1 89.8

Quickly give me recorded viability at 28.5 h, 10 µM for CC1(C)CC(=O)C=C(C(=O)NCc2ccc(OC3CCNCC3)cc2)O1 [CBK038948T] 96.1

Read off the recorded viability at 28.5 h, 10 µM for Cc1cc(COC(=O)Nc2cccnc2)cc(C)n1 83.6

Entry CC1C(=O)N2CCCc3cc(S(=O)(=O)NCc4ccc5c(c4)OCO5)cc1c32 (stereo not shown) needs its viability at 28.5 h, 10 µM filled in; supply it. 107

Tell me measured viability at 28.5 h, 10 µM for CCC(NS(=O)(=O)c1cnc2c(c1)c(C)nn2C)C(O)C(F)(F)F (stereo not shown) please. 86.5

Return the recorded viability at 28.5 h, 10 µM value; entry: COc1ccc(NC(=O)CSc2cc(-n3cccn3)ncn2)cc1 116

Provide measured viability at 28.5 h, 10 µM value, entry: CC1(C)[C@H](Cc2cc(COc3ccccc3)on2)C[C@@H]1NC1CCOCC1 96.5

Return value of viability at 28.5 h, 10 µM for input CC(NC(=O)CCc1cnn(C)c1)c1cccc(-n2ccnc2)c1 (stereo not shown) , no commentary. 97.3

Tell me viability at 28.5 h, 10 µM reported for O=C(Oc1ccc(Cl)cc1)c1cc(S(=O)(=O)N2CCOCC2)ccc1Cl 99.6

Please indicate viability at 28.5 h, 10 µM recorded for CCS(=O)(=O)NC1CCN(c2nc(C(F)(F)F)nc3ccsc23)CC1 108

Return value of viability at 28.5 h, 10 µM for input CN1CCN(S(=O)(=O)c2ccc(-c3cc(C(F)(F)F)on3)s2)CC1 , no commentary. 96

// fetch viability at 28.5 h, 10 µM given entry NS(=O)(=O)c1ccc2nc(NC(=O)c3ccc(Cl)s3)sc2c1 108

Give the value of viability at 28.5 h, 10 µM reported for the following: Cc1[nH]c(=O)[nH]c(=S)c1C(=O)NCc1cccc(Cl)c1C 94.6

Supply measured viability at 28.5 h, 10 µM of COc1ccccc1N1CCN(C(=O)Nc2cccnc2)CC1 in your reply. 98.7

Please give the documented viability at 28.5 h, 10 µM of O=C(CN1CCC(c2ccccc2F)CC1)NC1CCCC1 97.4

Hello, please tell me recorded viability at 28.5 h, 10 µM for this one: CN1C(=O)CC2(C1=O)C(=O)N(CCN1C(=O)c3ccccc3C1=O)c1ccc(F)cc12 (stereo not shown) 89.5
